biological target: full-length human PRMT6 (Flag- and His-tagged) (Homo sapiens, UniProt Q96LA8); assay: PRMT6 Biochemical Assay (3H-SAM Flashplate, peptide substrate); conditions: single experiment or average of multiple experiments; read-out: Biochemical IC50 PRMT6
Sequence (Q96LA8 with tags, fused parts or gaps): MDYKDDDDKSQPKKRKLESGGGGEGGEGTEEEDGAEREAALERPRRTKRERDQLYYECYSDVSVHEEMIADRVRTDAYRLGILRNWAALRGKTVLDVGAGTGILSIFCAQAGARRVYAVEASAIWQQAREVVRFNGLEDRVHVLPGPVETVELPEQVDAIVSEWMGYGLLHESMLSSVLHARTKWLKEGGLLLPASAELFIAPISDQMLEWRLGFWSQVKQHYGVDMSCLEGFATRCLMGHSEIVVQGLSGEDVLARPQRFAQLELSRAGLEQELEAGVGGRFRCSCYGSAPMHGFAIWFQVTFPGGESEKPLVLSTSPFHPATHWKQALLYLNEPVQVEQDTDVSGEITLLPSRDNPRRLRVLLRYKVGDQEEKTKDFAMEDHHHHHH
result.type: IC50 (nM)

Solved cases below.
molecule	IC50, nM
CNCCN(C)Cc1c[nH]nc1[C@H]1CC[C@H](N(CC(C)C)C(=O)CCCOC)CC1 [Compound 248]	32.6
CNCCN(C)Cc1c[nH]nc1[C@H]1CC[C@@H](C(=O)N(C)CCOc2ccccc2)CC1	33.1
CNCCN(C)Cc1c[nH]nc1[C@H]1CC[C@@]2(CCCO2)CC1	22

1 = CNCCN(C)Cc1c[nH]nc1[C@H]1CC[C@@]2(CCOC2)CC1
2 = CN(CCN)Cc1c[nH]nc1C1CCC2(CCCC2)CC1
// returns 1 or 2 , whichever has the lower IC50 Reply briefly: the label of your chosen item.
2
(2: 5.6 nM, 1: 23 nM)

A = CN(CCN)Cc1c[nH]nc1/C=C/c1cccc(F)c1
B = CCN(C(=O)CC(C)C)[C@H]1CC[C@H](c2n[nH]cc2CN(C)CCNC)CC1
For the pair A and B , which member has the lower IC50 number? Selection: enter the item's label.
B
(B: 7.75 nM, A: 20 nM)

a = CNCCN(C)Cc1c[nH]nc1C1CCC(C)(C)[C@H](C(=O)NCCOC)C1 (stereo partly drawn)
b = CNCCN(C)Cc1c[nH]nc1C1CCC(OCCOc2ccccc2)CC1 (stereo not drawn)
c = CNCCN(C)Cc1c[nH]nc1[C@H]1CC[C@H](C(=O)N(C)CCOc2ccccc2)CC1
Ordering: ascending IC50. Form field (ranking): labels in requested order.
b, c, a

A = CNCCN(C)Cc1c[nH]nc1[C@H]1CC[C@@H](N(CC2CCOCC2)C(=O)CC(C)C)CC1
B = CN(CCN)Cc1c[nH]nc1C1CCC1
C = CNCCN(C)Cc1c[nH]nc1[C@H]1CC[C@@H](C(=O)N(CCCOC)CCC(C)C)CC1
List by increasing IC50. Give your ranking as a list of the labels in the requested order.
C, A, B
